UniProtKB P18089 AC50 data
Sequence (P18089 whole entry): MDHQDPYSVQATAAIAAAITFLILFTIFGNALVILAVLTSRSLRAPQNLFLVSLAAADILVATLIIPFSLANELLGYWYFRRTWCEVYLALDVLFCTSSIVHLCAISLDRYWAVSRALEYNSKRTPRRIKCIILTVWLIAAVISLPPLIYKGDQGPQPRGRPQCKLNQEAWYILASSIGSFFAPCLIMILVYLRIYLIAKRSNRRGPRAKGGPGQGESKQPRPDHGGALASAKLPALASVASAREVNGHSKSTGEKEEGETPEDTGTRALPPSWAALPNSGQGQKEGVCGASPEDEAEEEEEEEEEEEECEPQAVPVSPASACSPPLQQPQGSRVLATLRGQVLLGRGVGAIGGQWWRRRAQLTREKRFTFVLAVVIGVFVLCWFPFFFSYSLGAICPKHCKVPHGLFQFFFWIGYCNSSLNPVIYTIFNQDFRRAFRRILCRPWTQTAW

// fetch UniProtKB P18089 AC50 for `C[N+]1(C)CCC(=C(c2ccccc2)c2ccccc2)CC1` > 10 µM

UniProtKB P18089 / AC50 / COC(=O)C1=C(C)NC(C)=C(C(=O)OCCN2CCN(C(c3ccccc3)c3ccccc3)CC2)C1c1cccc([N+](=O)[O-])c1 (stereo not drawn) [MANIDIPINE 6300] : value? > 30 µM

// map OC[C@H]1O[C@@H](n2cnc3c2NC=NC[C@H]3O)C[C@@H]1O [PENTOSTATIN] to recorded AC50 (system: UniProtKB P18089) > 30 µM

What reported AC50 corresponds to CN[C@@H](C)[C@@H](O)c1ccccc1 [PSEUDOEPHEDRINE] on UniProtKB P18089? > 10 µM

Missing value: AC50, UniProtKB P18089, entry CC=CC1=C(C(=O)O)N2C(=O)[C@@H](NC(=O)[C@H](N)c3ccc(O)cc3)[C@H]2SC1 [CEFPROZIL] . Fill in? > 30 µM

Please tell me: AC50 of CC(C)[C@@H](C)/C=C/[C@@H](C)[C@H]1CC[C@H]2/C(=C/C=C3\C[C@@H](O)CC[C@@H]3C)CCC[C@]12C [DIHYDROTACHYSTEROL] , system UniProtKB P18089? > 10 µM

Return AC50 measured with UniProtKB P18089 given this compound: CCC(NC(C)C)C(O)c1ccc(O)c2[nH]c(=O)ccc12 (stereo not drawn) [PROCATEROL] > 30 µM

Observed AC50 on UniProtKB P18089 for CN1CCN=C(c2ccccc2)c2cc(Cl)ccc21 [MEDAZEPAM] , please. > 30 µM

---

- Test Target: UniProt:Q99808
- Sequence (Q99808 whole entry): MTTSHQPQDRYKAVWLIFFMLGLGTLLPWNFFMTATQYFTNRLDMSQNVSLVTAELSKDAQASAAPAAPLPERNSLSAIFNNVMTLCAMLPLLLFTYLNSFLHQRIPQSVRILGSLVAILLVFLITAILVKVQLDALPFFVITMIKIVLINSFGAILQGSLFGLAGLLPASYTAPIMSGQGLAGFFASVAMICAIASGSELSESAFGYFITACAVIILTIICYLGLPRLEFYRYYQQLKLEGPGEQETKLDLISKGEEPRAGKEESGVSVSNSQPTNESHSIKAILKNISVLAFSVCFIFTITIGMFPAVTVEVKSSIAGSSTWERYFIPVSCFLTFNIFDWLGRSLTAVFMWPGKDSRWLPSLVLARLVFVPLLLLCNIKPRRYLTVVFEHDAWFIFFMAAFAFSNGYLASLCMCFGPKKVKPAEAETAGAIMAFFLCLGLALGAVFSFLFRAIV
Property Name: AC50

Need AC50 of O=C(O)CCNC(=O)c1ccc(/N=N/c2ccc(O)c(C(=O)O)c2)cc1 [BALSALAZIDE] , thanks. 30 µM

Reported AC50 for COc1ccc([C@@H]2CC(=O)c3c(O)cc(O)cc3O2)cc1O [HESPERETIN] : what is it? > 10 µM

Request the reported AC50 associated with O=C(CCCN1CCC(O)(c2ccc(Br)cc2)CC1)c1ccc(F)cc1 [BROMPERIDOL] > 30 µM

May I ask what AC50 has been recorded for CC(=O)[C@H]1CC[C@H]2[C@@H]3C[C@H](C)C4=CC(=O)CC[C@]4(C)[C@H]3[C@@H](O)C[C@]12C [MEDRYSONE] ? > 10 µM

For COc1cc(C(=O)OCc2cccc(COC(=O)c3cc(OC)c(OC)c(OC)c3)n2)cc(OC)c1OC [PIROZADIL] , what is its reported AC50? > 30 µM

Which AC50 reading was recorded for the compound CCC1(c2ccc(N)cc2)CCC(=O)NC1=O (stereo not given) [AMINOGLUTETHIMIDE] ? > 30 µM

Looking for the measured AC50 of CC1=C(C(=O)OC(C)C)C(c2cccc([N+](=O)[O-])c2)C(C(=O)OC2CN(C(c3ccccc3)c3ccccc3)C2)=C(N)N1 (stereo not given) [AZELNIDIPINE] , can you help? > 30 µM

Query: AC50; subject: CN(CCOc1ccc(CC2SC(=O)NC2=O)cc1)c1ccccn1 (stereo not given) [ROSIGLITAZONE] > 30 µM

Need AC50, item C[C@]12C=CC(=O)C=C1CC[C@@H]1[C@@H]2CC[C@]2(C)OC(=O)CC[C@@H]12 [TESTOLACTONE] > 10 µM

Looking for the measured AC50 of CCC1(CCC(C)C)C(=O)NC(=O)NC1=O [AMOBARBITAL] , can you help? > 10 µM

Value lookup for AC50; key = Clc1ccc(CCC(Cn2ccnc2)Sc2c(Cl)cccc2Cl)cc1 (stereo not given) [BUTOCONAZOLE] > 30 µM

Tell me the measured AC50 of CN(C)C/C=C/C(=O)Nc1cc2c(Nc3ccc(F)c(Cl)c3)ncnc2cc1O[C@H]1CCOC1 [AFATINIB] , please. > 30 µM

Look at this compound and give its reported AC50. CC(=O)c1ccc(S(=O)(=O)NC(=O)NC2CCCCC2)cc1 [ACETOHEXAMIDE] > 10 µM

What value of AC50 has been recorded for this entry: `CCOc1cc([C@@H](CS(C)(=O)=O)N2C(=O)c3cccc(NC(C)=O)c3C2=O)ccc1OC` > 30 µM

Recorded AC50 for O=C1c2cccc3c2[C@H](CCC3)CN1[C@@H]1CN2CCC1CC2 [PALONOSETRON] , please? > 30 µM

Give the measured AC50 of c1ccc(C2(N3CCCCC3)CCCCC2)cc1 [PHENCYCLIDINE] . > 30 µM

Form field: reported AC50 of CC(=O)O[C@]1(C(C)=O)CC[C@H]2[C@@H]3C=C(Cl)C4=CC(=O)[C@@H]5C[C@@H]5[C@]4(C)[C@H]3CC[C@@]21C [CYPROTERONE ACETATE] > 30 µM

Which measured AC50 value corresponds to COc1cc(C(C)=O)ccc1OCCCN1CCC(c2noc3cc(F)ccc23)CC1 [ILOPERIDONE] ? > 30 µM

What measured AC50 goes with CCc1cc2c(s1)-n1c(C)nnc1CN=C2c1ccccc1Cl [ETIZOLAM] ? > 30 µM

Sample CC(C)[C@@H](C)/C=C/[C@@H](C)[C@H]1CC[C@H]2/C(=C/C=C3\C[C@@H](O)CC[C@@H]3C)CCC[C@]12C [DIHYDROTACHYSTEROL] — what was its AC50? > 10 µM

// query AC50 value for entry OC[C@H]1O[C@@H](n2cnc3c2NC=NC[C@H]3O)C[C@@H]1O [PENTOSTATIN] > 30 µM

I am curious: what AC50 value has been reported for CC1(C)S[C@@H]2[C@H](NC(=O)C(C(=O)O)c3ccccc3)C(=O)N2[C@H]1C(=O)O (stereo not given in full) [CARBENICILLIN] ? > 30 µM

Could you share which AC50 value was measured for O=C(NCCO[N+](=O)[O-])c1cccnc1 [NICORANDIL] ? > 30 µM

Endpoint output: AC50 of CC(CN1c2ccccc2Sc2ccccc21)N(C)C (stereo not given) [PROMETHAZINE] . Value? > 30 µM

AC50 for COc1cc(C(=O)NS(=O)(=O)c2ccccc2C)ccc1Cc1cn(C)c2ccc(NC(=O)OC3CCCC3)cc12 [ZAFIRLUKAST] ? > 10 µM

Name the reported AC50 value associated with the compound Cc1ccnc2c1NC(=O)c1cccnc1N2C1CC1 [NEVIRAPINE] > 30 µM

Please report the recorded AC50 for C=CCN1CCc2nc(N)sc2CC1 [TALIPEXOLE] . > 30 µM

What does the record list as AC50 for Fc1ccc([C@@H]2CCNC[C@H]2COc2ccc3c(c2)OCO3)cc1 [PAROXETINE] ? > 30 µM

What does the record list as AC50 for Cc1ccccc1-n1c(CF)nc2ccc(N)cc2c1=O [AFLOQUALONE] ? > 30 µM

Item under review: O=C(O)Cc1ccccc1Oc1ccc(Cl)cc1Cl [FENCLOFENAC] . Reported AC50? > 30 µM

Would you kindly share the measured AC50 for CCOC(=O)C(C)(C)Oc1ccc(Cl)cc1 [CLOFIBRATE] ? > 30 µM

Entry under review: C=CC[N+]1([C@H]2C[C@H]3[C@@H]4CC[C@H]5C[C@H](O)[C@@H](N6CCOCC6)C[C@]5(C)[C@H]4CC[C@]3(C)[C@H]2OC(C)=O)CCCC1 [ROCURONIUM] . Reported AC50? > 30 µM

For the compound CC(C)[C@H](N)C(=O)OCCOCn1cnc2c(=O)[nH]c(N)nc21 [VALACYCLOVIR] , what AC50 is on record? > 30 µM

Consider the compound CNC(=C[N+](=O)[O-])NCCSCc1csc(CN(C)C)n1 [NIZATIDINE] and give its measured AC50. > 10 µM

Any idea what AC50 was measured for C/C=C(/C(=C/C)c1ccc(O)cc1)c1ccc(O)cc1 [DIENESTROL] ? > 30 µM
